Reference source for all entries: ChEMBL document CHEMBL3751828

MEASUREMENT_DESCRIPTION: Apparent permeability of the compound from apical to basolateral side in human Caco2 cells
Type: ADME, cell-based
STATED_CONDITIONS: Caco-2
MEASURED_METRIC: Papp A→B (nm/s)
// return numeric value only (unit: nm/s, not printed)

For the molecule CC(=O)Nc1cn2cc(-c3cnc(N)c(OC(C)C(F)(F)F)n3)ccc2n1 (racemic) , report Papp A→B.
410

###

Would you mind telling me the reported Cmax of each entry?
MEASUREMENT_DESCRIPTION: Cmax in CD rat at […], po by LC-MS analysis
Type: ADME, organism-based
Design: dose 2.5 mg/kg, route oral
STATED_CONDITIONS: in vivo
Hi, when you answer, please include the unit after the number. Thanks!

Give a short answer stating reported Cmax for CCOc1nc(-c2ccc3nc(NC(C)=O)cn3c2)cnc1N .
3.6 µM

Please supply the value of reported Cmax for the item CC(=O)Nc1cn2cc(-c3cnc(N)c(OCC(F)(F)F)n3)ccc2n1
1.5 µM

Quickly give me recorded Cmax for CC(=O)Nc1cn2cc(-c3cnc(N)c(OC(C)C(F)(F)F)n3)ccc2n1 (racemic)
3 µM

Fill in reported Cmax for this entry: COc1nc(-c2ccc3nc(NC(C)=O)cn3c2)cnc1N
8.9 µM

Read the entry COCCOc1nc(-c2ccc3nc(NC(C)=O)cn3c2)cnc1N and write its reported Cmax.
4 µM

Let me know recorded Cmax for CC(=O)Nc1cn2cc(-c3cnc(N)c(OC(C)C)n3)ccc2n1 , thanks.
1.3 µM

###

MEASUREMENT_DESCRIPTION: AUC (0 to last) in CD rat at […], po by LC-MS analysis
Assay type: ADME, organism-based
Design: dose 2.5 mg/kg, route oral, time 0 - last
STATED_CONDITIONS: in vivo
MEASURED_METRIC: AUC(0-t)
Dear colleague, please send the value followed by its unit.

Complete the entry with AUC(0-t) for CC(=O)Nc1cn2cc(-c3cnc(N)c(OC(C)C(F)(F)F)n3)ccc2n1 (racemic)
49 µM·h

For the compound CC(=O)Nc1cn2cc(-c3cnc(N)c(OC(C)C)n3)ccc2n1 , give its reported AUC(0-t).
13 µM·h

Report AUC(0-t), nothing else, for this compound: CC(=O)Nc1cn2cc(-c3cnc(N)c(OCC(F)(F)F)n3)ccc2n1
4 µM·h

// fetch AUC(0-t) given entry COCCOc1nc(-c2ccc3nc(NC(C)=O)cn3c2)cnc1N
14 µM·h

Please look at this compound and report its AUC(0-t): CCOc1nc(-c2ccc3nc(NC(C)=O)cn3c2)cnc1N
7 µM·h

Name the recorded AUC(0-t) of the compound listed here: COc1nc(-c2ccc3nc(NC(C)=O)cn3c2)cnc1N
15 µM·h
